From: patent US12064516B2

# method: Pharmacokinetics of compound I-1 in the dog by intravenous, oral gavage and oral capsule routes
# Format: in vivo, beagle dogs
# particulars: male, beagle, dog, plasma, po, 10 mg/kg, Group 2: PO Gavage 10 mg/kg; 8 h; Subject 1; read-out: Concentration at time point
experimental_readout: concentration at 8 h (ng/mL)
Number only, in ng/mL; omit the unit.

Exercise: Suppose we examine the compound `CC(C)(O)c1nc2ccccc2cc1N` ; what concentration at 8 h value has been reported?
Solution: 131

----------
# method: Pharmacokinetics of compound I-1 in the dog by intravenous, oral gavage and oral capsule routes
# Assay type: in vivo, beagle dogs
# particulars: male, beagle, dog, plasma, iv, 3 mg/kg, Intravenous - 3 mg/kg; Subj2
experimental_readout: clearance (mL/min/kg)
# value in mL/min/kg; strip the unit string

Exercise: Recorded clearance for `CC(C)(O)c1nc2ccccc2cc1N` , please?
Solution: 11

----------
# method: Pharmacokinetics of compound I-1 in the dog by intravenous, oral gavage and oral capsule routes
# Format: in vivo, beagle dogs
# particulars: male, beagle, dog, plasma, po, 10 mg/kg, Group 2: PO Gavage 10 mg/kg; 12 h; Subject 2; read-out: Concentration at time point
experimental_readout: concentration at 12 h (ng/mL)
State just the number; it will be interpreted in ng/mL.

Exercise: Entry under review: CC(C)(O)c1nc2ccccc2cc1N [I-1] . Reported concentration at 12 h?
Solution: 59.1

----------
# method: Pharmacokinetics of compound I-1 in the dog by intravenous, oral gavage and oral capsule routes
# Format: in vivo, beagle dogs
# particulars: male, beagle, dog, plasma, iv, 3 mg/kg, Group 1: IV 3 mg/kg; 8 h; Subject 3; read-out: Concentration at time point
experimental_readout: concentration at 8 h (µg/mL)
Give your result in µg/mL as a bare value.

Exercise: What does the data say about its concentration at 8 h? Entry: `CC(C)(O)c1nc2ccccc2cc1N`
Solution: 0.0231

----------
# method: Pharmacokinetics of compound I-1 in the dog by intravenous, oral gavage and oral capsule routes
# Type: in vivo, beagle dogs
# particulars: male, beagle, dog, plasma, iv, 3 mg/kg, Group 1: IV 3 mg/kg; 8 h; Average; read-out: Concentration at time point
experimental_readout: concentration at 8 h (ng/mL)
Form entry: value (ng/mL) — number only.

Exercise: Would you mind telling me what concentration at 8 h value was observed for CC(C)(O)c1nc2ccccc2cc1N [I-1] ?
Solution: 42.5

----------
# method: Pharmacokinetics of compound I-1 in the dog by intravenous, oral gavage and oral capsule routes
# Type: in vivo, beagle dogs
# particulars: male, beagle, dog, plasma, po, 10 mg/kg, Oral Gavage 0.5% Methylcellulose 10 mg/kg; Average; read-out: BioA (bioavailability)
# Experimental: A pharmacokinetic study was conducted to compare the bioavailability of capsule and suspension oral formulations vs. an intravenous formulations. The standard curve was prepared from 1 to 2,000 ng/mL. QC samples were prepared at 30, 30, and 750 ng/mL. […] The resulting supernatants were analyzed by LCMS. […] The I-1 100 mg capsules are manufactured as a non-sterile spray dried, granulated powder blend. […] The quantitative composition of the I-1 100 mg capsule is presented above in Table B. […]
experimental_readout: bioavailability (%)
Kindly provide the numeric value in % only, without the unit symbol.

Exercise: Which bioavailability value belongs to `CC(C)(O)c1nc2ccccc2cc1N` ?
Solution: 75

----------
# method: Pharmacokinetics of compound I-1 in the dog by intravenous, oral gavage and oral capsule routes
# Type: in vivo, beagle dogs
# particulars: male, beagle, dog, plasma, oral, 7 mg/kg, Group 3: PO Capsule 7 mg/kg; 0.5 h; Subject 2; read-out: Concentration at time point
experimental_readout: concentration at 0.5 h (ng/mL)
Give just the numeric value; ng/mL need not be written.

Exercise: Return reported concentration at 0.5 h; argument: `CC(C)(O)c1nc2ccccc2cc1N`
Solution: 290

----------
# method: Pharmacokinetic comparison of ADX-102 (reproxalap) and compound I-1 in rats
# Format: in vivo, Sprague-Dawley rats
# particulars: SD Rat; oral gavage 10 mg/kg; CMC/Tween
experimental_readout: Cmax (ng/mL)
Write the value in ng/mL as a bare number.

Exercise: May I ask what Cmax has been recorded for `CC(C)(O)c1nc2ccc(Cl)cc2cc1N` ?
Solution: 390

----------
# method: Pharmacokinetics of compound I-1 in the dog by intravenous, oral gavage and oral capsule routes
# Type: in vivo, beagle dogs
# particulars: male, beagle, dog, plasma, iv, 3 mg/kg, Group 1: IV 3 mg/kg; 2 h; Subject 1; read-out: Concentration at time point
experimental_readout: concentration at 2 h (ng/mL)
# value in ng/mL; strip the unit string

Exercise: Data request, read-out concentration at 2 h, for CC(C)(O)c1nc2ccccc2cc1N [I-1]
Solution: 436

----------
# method: Pharmacokinetic comparison of ADX-102 (reproxalap) and compound I-1 in rats
# Type: in vivo, Sprague-Dawley rats
# particulars: SD Rat; oral gavage 10 mg/kg; CMC/Tween
experimental_readout: t1/2 (h)
Field format: number, assumed h, no unit text.

Exercise: Please give the measured t1/2 for this compound: `CC(C)(O)c1nc2ccc(Cl)cc2cc1N`
Solution: 2.27

----------
# method: Pharmacokinetics of compound I-1 in the dog by intravenous, oral gavage and oral capsule routes
# Type: in vivo, beagle dogs
# particulars: male, beagle, dog, plasma, po, 10 mg/kg, Group 2: PO Gavage 10 mg/kg; 12 h; Average; read-out: Concentration at time point
experimental_readout: concentration at 12 h (ng/mL)
The response must be a number in ng/mL with no trailing unit.

Exercise: Sample `CC(C)(O)c1nc2ccccc2cc1N` — what was its concentration at 12 h?
Solution: 45.1

----------
# method: Pharmacokinetics of compound I-1 in the dog by intravenous, oral gavage and oral capsule routes
# Assay type: in vivo, beagle dogs
# particulars: male, beagle, dog, plasma, po, 10 mg/kg, Group 2: PO Gavage 10 mg/kg; 0.5 h; Subject 2; read-out: Concentration at time point
experimental_readout: concentration at 0.5 h (ng/mL)
# number only, unit ng/mL dropped from output

Exercise: Fill in: concentration at 0.5 h of `CC(C)(O)c1nc2ccccc2cc1N` is ___
Solution: 4290

----------
# method: Pharmacokinetics of compound I-1 in the dog by intravenous, oral gavage and oral capsule routes
# Assay type: in vivo, beagle dogs
# particulars: male, beagle, dog, plasma, po, 7.2 mg/kg, 100 mg Capsule, average dose 7.2 mg/kg; Average
experimental_readout: AUC(0-t)
Respond with the figure and its unit, in that order.

Exercise: Recorded AUC(0-t) of `CC(C)(O)c1nc2ccccc2cc1N` , please.
Solution: 8080 ng·h/mL

----------
# method: Phase 1 clinical trial, multiple ascending dose (MAD) pharmacokinetics
# Type: in vivo, human
# particulars: human, in vivo, po, 150 mg, oral 150 mg BID; Day 1; read-out: Mean Cmax
experimental_readout: Cmax

Exercise: Suppose we examine the compound CC(C)(O)c1nc2ccccc2cc1N [I-1] ; what Cmax value has been reported?
Solution: ~343 ng/mL

----------
# method: Phase 1 clinical trial, multiple ascending dose (MAD) pharmacokinetics
# Assay type: in vivo, human
# particulars: human, in vivo, oral, multiple day exposures, across cohorts and days; read-out: half-life (t1/2), range of mean values
# From the text: PK data are presented below.
experimental_readout: half-life

Exercise: Can you look up the measured half-life of `CC(C)(O)c1nc2ccccc2cc1N` for me?
Solution: 3.49 to 6.83 h

----------
# method: Pharmacokinetics of compound I-1 in the dog by intravenous, oral gavage and oral capsule routes
# Format: in vivo, beagle dogs
# particulars: male, beagle, dog, plasma, oral, 7 mg/kg, Group 3: PO Capsule 7 mg/kg; 2 h; Subject 3; read-out: Concentration at time point
experimental_readout: concentration at 2 h (ng/mL)
Numeric answer only, unit ng/mL assumed.

Exercise: I would be grateful if you could share the reported concentration at 2 h for CC(C)(O)c1nc2ccccc2cc1N [I-1] .
Solution: 3990

----------
# method: Pharmacokinetics of compound I-1 in the dog by intravenous, oral gavage and oral capsule routes
# Type: in vivo, beagle dogs
# particulars: male, beagle, dog, plasma, iv, 3 mg/kg, Group 1: IV 3 mg/kg; 0.5 h; Subject 1; read-out: Concentration at time point
experimental_readout: concentration at 0.5 h (ng/mL)
The answer is to be given in ng/mL; state only the numeric part.

Exercise: Entry CC(C)(O)c1nc2ccccc2cc1N [I-1] has what concentration at 0.5 h?
Solution: 1720

----------
# method: Phase 1 clinical trial, single ascending dose (SAD) pharmacokinetics
# Assay type: in vivo, human
# particulars: human, in vivo, po, 200 mg, healthy volunteers; oral single dose 200 mg
experimental_readout: Cmax

Exercise: Any idea what Cmax was measured for `CC(C)(O)c1nc2ccccc2cc1N` ?
Solution: ~0.459 µg/mL

----------
# method: Pharmacokinetics of compound I-1 in the dog by intravenous, oral gavage and oral capsule routes
# Assay type: in vivo, beagle dogs
# particulars: male, beagle, dog, plasma, po, 7.2 mg/kg, 100 mg Capsule, average dose 7.2 mg/kg; Subj2
experimental_readout: Cmax (ng/mL)
Note: unit ng/mL is implicit; provide only the numeric part.

Exercise: Cmax for `CC(C)(O)c1nc2ccccc2cc1N` ?
Solution: 986
